- experimentDescription: chemical genetic growth profiling, strain panel (AID 1159580);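 note: tested at 20 µM; growth read once vehicle control cultures reached saturation at 30 °C; 1 = growth at the plate median or of vehicle wells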
- studyConditions: S. cerevisiae deletion strains, growth OD, locus YLR342W, strain FKS1, stronger effect = lower value
Screen size: about 5,500 compounds; about 2,000 (36%) were called active. Not shown: some 18% with an inconclusive outcome. The list shows a part of the results.
assayEndpoint: normalized growth
Just the number, please, no unit attached.

Below are worked cases with known answers.
molecule: CC(CN(C)C)CN1c2ccccc2CCc2ccccc21 (stereo not given)
normalized growth: 0.976
//
molecule: N#C/C(=C\c1cccc(O)c1)C(=O)O
normalized growth: 0.99
//
molecule: Cc1cc(O)c(C=O)c2c1C(=O)Oc1c(COC(=O)/C=C/C(=O)O)c(O)c(C(=O)O)c(C)c1O2
normalized growth: 0.968

Continue with the molecule presented below.
Sample `N[C@H](Cc1ccccc1)C(=O)O` ; normalized growth observed: 1.02

---

- experimentDescription: chemical genetic growth profiling, strain panel (AID 1159580)
- studyConditions: S. cerevisiae deletion strains, growth OD, locus YJL129C, strain trk1
About 2,000 (36%) of roughly 5,500 compounds were called active. About 18% were inconclusive and are not listed. No stated cut-off is given here; in the data, active means normalized growth mostly below about 0.91 (no sharp cut-off); inconclusive means no clear call, values can overlap the other calls; inactive means mostly above about 0.92. The list shows a part of the results.
The reply should be one of these categories: active, inactive

compound: CC(CN(C)C)CN1c2ccccc2CCc2ccccc21 (stereo not given)
classAssignment: inactive
//
compound: OC[C@H]1OC([S-])[C@H](O)[C@@H](O)[C@@H]1O.[Au+] (stereo not given in full)
classAssignment: inactive
//
compound: CC(CCC(=O)O)[C@H]1CCC2C3CC[C@@H]4C[C@H](O)CC[C@]4(C)C3C[C@H](O)[C@@]21C (stereo not given in full)
classAssignment: inactive
//
compound: CC(CCC(=O)O)[C@H]1CCC2C3C[C@H](O)[C@@H]4C[C@H](O)CC[C@]4(C)C3CC[C@@]21C (stereo not given in full)
classAssignment: inactive
//
compound: C=C1C(C2(C)C=CC(=O)C(C)(C)C2CC(=O)OC)CC[C@@]2(C)[C@H](c3ccoc3)OC(=O)C3OC132 (stereo not given in full)
classAssignment: inactive
//
compound: Cc1nc2ccccn2c(=O)c1CCN1CCC(C(=O)c2ccc(F)cc2)CC1
classAssignment: inactive
//
compound: CC(CN1c2ccccc2Sc2ccccc21)N(C)C (stereo not given)
classAssignment: inactive
//
compound: N[C@@H]1[C@@H](O)[C@H](O)[C@@H](CO)O[C@H]1O
classAssignment: inactive

How did this test come out for C[C@H](CCC(=O)O)[C@H]1CCC2C3C(CC[C@@]21C)[C@@]1(C)CC[C@@H](O)C[C@H]1C[C@@H]3O (stereo not given in full) ? inactive

Recorded test outcome, item `C=C1[C@H]2CC[C@@]3(C)[C@H](c4ccoc4)OC(=O)C[C@]13O[C@H]1C[C@H](O)C(C)(C)[C@H](CC(=O)OC)[C@]12C` inactive

---

- experimentDescription: chemical genetic growth profiling, strain panel (AID 1159580)
- studyConditions: S. cerevisiae deletion strains, growth OD, locus YML124C, strain tub3, stronger effect = lower value
About 2,000 (36%) of roughly 5,500 compounds were called active. About 18% were inconclusive and are not listed. Some of the results follow.
assayEndpoint: normalized growth
In your answer, state the number alone without any accompanying words.

compound: CN(C)CCOC(=O)C(c1ccccc1)C1(O)CCCC1 (configuration not stated)
assayEndpoint: normalized growth
reportedMeasurement: 1.01

Entry `CN(C)CCOC(=O)COc1ccc(Cl)cc1` — recorded normalized growth = 1.04

For record NCC(CC(=O)O)c1ccc(Cl)cc1 (configuration not stated) the listed normalized growth is 0.983

The recorded normalized growth for entry `CCCC(C(=O)OCCN(CC)CC)(c1ccccc1)c1ccccc1` equals 0.995

So for `COC(=O)CCCOc1ccc(Cl)cc1Cl` , the logged normalized growth turned out to be 0.995

Sure, the documented normalized growth for `CCCCC[C@H](CC(=O)NO)C(=O)N[C@H](C(=O)N1CCC[C@H]1CO)C(C)C` is 1

// normalized growth lookup, compound = `O=C(O)CCCOc1ccc(Cl)cc1Cl` , result: 1

---

# key: entry, value: normalized growth
- experimentDescription: chemical genetic growth profiling, strain panel (AID 1159580);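 note: tested at 20 µM; growth read once vehicle control cultures reached saturation at 30 °C; 1 = growth at the plate median or of vehicle wells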
- studyConditions: S. cerevisiae deletion strains, growth OD, locus YNL020C, strain ARK1, stronger effect = lower value
Hit rate of the full screen: of about 5,500 compounds, about 2,000 (36%) were called active. Not shown: some 18% with an inconclusive outcome. The list shows a part of the results.
Please give the numeric answer without any surrounding text.

molecule: CC1(C)c2ccccc2N(CCC(N)=O)C12C=Cc1c(ccc3ccccc13)O2 (centres undefined)
reportedMeasurement: 0.915

molecule: CS(=O)(=O)/C(C#N)=C/c1ccccc1OCc1c(Cl)cccc1Cl
reportedMeasurement: 0.926

molecule: O=C(Nc1ccc(Cl)cc1)O/N=C\c1ccn(-c2ccccc2)n1
reportedMeasurement: 0.782

molecule: COc1ccc(C(=O)NCc2csc3ccc(Cl)cc23)cc1OC
reportedMeasurement: 0.985

molecule: COc1cc(CC/C(C)=N\O)ccc1OCc1ccc(Cl)c(Cl)c1
reportedMeasurement: 0.851

molecule `CNC(=O)n1nc(C)c(Cc2csc3ccc(Cl)cc23)c1C` , normalized growth observed: 0.934

Entry `CC(C)(C)C(=O)/C(C#N)=C/c1c(Cl)cccc1Cl` ; normalized growth = 0.118

The molecule identified as `Cc1onc(-c2ccccc2)c1C(=O)Sc1ccc(C(F)(F)F)cn1` registered its normalized growth at 0.874

// normalized growth lookup, molecule = `NNC(=O)c1csc(Cc2c(Cl)sc3ccc(Cl)cc23)n1` , result: 0.999

---

- experimentDescription: chemical genetic growth profiling, strain panel (AID 1159580);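 note: tested at 20 µM; growth read once vehicle control cultures reached saturation at 30 °C; 1 = growth at the plate median or of vehicle wells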
- studyConditions: S. cerevisiae deletion strains, growth OD, locus YER111C, strain swi4
The whole screen tested about 5,500 compounds, of which about 2,000 (36%) were called active. Roughly 18% stayed inconclusive and do not appear here. Cut-off read from the data, not from the text of the source: active = normalized growth mostly below about 0.91 (no sharp cut-off); inconclusive = no clear call, values can overlap the other calls; inactive = mostly above about 0.92. The list shows a part of the results.
Just give me one of these, please: y for active, n for inactive

compound: C=C1[C@H]2CC[C@@]3(C)[C@H](c4ccoc4)OC(=O)C[C@]13O[C@H]1C[C@H](O)C(C)(C)[C@H](CC(=O)OC)[C@]12C
classAssignment: n
//
compound: CN(C)N=Nc1nc[nH]c1C(N)=O
classAssignment: n
//
compound: C=C1C2=CC(=O)O[C@@H](c3ccoc3)[C@]2(C)CCC1[C@@]1(C)C=CC(=O)C(C)(C)[C@@H]1CC(=O)OC (stereo partly drawn)
classAssignment: n
//
compound: C=Cc1c(C)c2[n-]c1=Cc1[n-]c(c(CC)c1C)C=c1[n-]c3c(c1C)C(=O)C(C(=O)[O-])C=3c1[n-]c(c(C)c1CCC(=O)[O-])C=2.[Cu] (stereo not drawn)
classAssignment: y

// return assay outcome for C=C1C2CC[C@@]3(C)[C@H](c4ccoc4)OC(=O)C[C@]13O[C@H]1CC(=O)C(C)(C)C(CC(=O)OC)[C@@]21C (stereo partly drawn) n

Hi, sorry to bother you, what did the test record for `Cc1cc(O)c(C=O)c2c1C(=O)Oc1c(COC(=O)/C=C/C(=O)O)c(O)c(C(=O)O)c(C)c1O2` ? y

Field: outcome | Entry: `c1ccc2c(c1)CN1CCCC1=N2` n

Query: recorded result category for `CCCCC[C@H](CC(=O)NO)C(=O)N[C@H](C(=O)N1CCC[C@H]1CO)C(C)C` in this test n

---

- experimentDescription: chemical genetic growth profiling, strain panel (AID 1159580);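 note: tested at 20 µM; growth read once vehicle control cultures reached saturation at 30 °C; 1 = growth at the plate median or of vehicle wells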
- studyConditions: S. cerevisiae deletion strains, growth OD, locus YJL187C, strain SWE1 (second series), stronger effect = lower value
Screen size: about 5,500 compounds; about 2,000 (36%) were called active. Another 18% or so got no clear call; they are omitted. This is one part of the list.
Examples of compounds with documented normalized growth follow.
Could you keep your reply to the number by itself?

Worked cases, answers included:
compound: COc1cc2c(cc1/C=C/C(=O)c1cc(OC)c(OC)cc1OC)OCO2
normalized growth: 1
//
compound: CC(=O)O[C@H]1CC[C@]2(C)C3C(=O)[C@@H](OC(C)=O)[C@@]4(C)C(C[C@@H]5O[C@]6(CCC(C)CO6)[C@@H](C)[C@@H]54)C3CC[C@H]2C1 (some centres undefined)
normalized growth: 0.988
//
compound: CCCCSP(=O)(SCCCC)SCCCC
normalized growth: 1.01
//
compound: Cc1cccc(Nc2ccncc2S(=O)(=O)NC(=O)NC(C)C)c1
normalized growth: 1.02
//
compound: Cc1cc(O)c(C=O)c2c1C(=O)Oc1c(COC(=O)/C=C/C(=O)O)c(O)c(C(=O)O)c(C)c1O2
normalized growth: 0.879

Given item `C=C[C@H]1CN2CC[C@H]1C[C@@H]2[C@H](O)c1ccnc2ccccc12` , the value recorded as its normalized growth is 0.956

Given item `CC12CC3CC(C)(C1)CC(N)(C3)C2` , the value recorded as its normalized growth is 1.02

normalized growth reading for CC(=O)O[C@H]1C[C@@H](OC(C)=O)C(C)(C)C2CC(=O)[C@]3(C)C(CC[C@@]4(C)[C@H](c5ccoc5)OC(=O)[C@H]5O[C@]543)[C@]21C (some centres undefined) : 1.02

Please fill in: normalized growth reported for CC1CCC2(OC1)OC1CC3C4CCC5C[C@@H](O)CCC5(C)C4=CCC3(C)C1[C@@H]2C (some centres undefined) = 0.986
